// reported EC50 per item
Biological target: GLP1R (Homo sapiens, UniProt P43220)
Sequence (P43220 24-463): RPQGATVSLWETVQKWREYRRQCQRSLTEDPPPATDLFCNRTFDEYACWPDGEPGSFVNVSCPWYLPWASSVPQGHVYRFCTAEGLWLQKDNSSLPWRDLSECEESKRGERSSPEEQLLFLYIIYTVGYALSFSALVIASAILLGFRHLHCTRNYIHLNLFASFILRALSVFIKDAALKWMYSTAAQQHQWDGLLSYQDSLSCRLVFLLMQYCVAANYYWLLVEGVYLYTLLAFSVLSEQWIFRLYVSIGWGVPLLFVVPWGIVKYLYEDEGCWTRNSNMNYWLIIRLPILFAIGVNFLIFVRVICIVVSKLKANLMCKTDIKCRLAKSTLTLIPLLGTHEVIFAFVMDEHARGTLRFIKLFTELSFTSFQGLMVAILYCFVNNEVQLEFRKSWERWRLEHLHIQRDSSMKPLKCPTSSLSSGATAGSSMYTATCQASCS
Test: GLP1R cAMP HTRF assay, HEK293/GLP-1R/CRE/Luc (HEK293T cells)
Type: cell-based
Settings: mean ± spread, read-out: HEK293T cells EC50
Answer in nM, number only, no unit symbol.

compound="N#Cc1ccc(COc2nc(C3=CCN(Cc4nc5ccc(C(=O)O)cc5n4C[C@@H]4CCO4)CC3)ccc2F)c(F)c1 [drawing 57]" metric_name=EC50 measurement_units=nM reported=0.517
compound="N#Cc1ccc(COc2nc(C3CCN(Cc4nc5ccc(C(=O)O)cc5n4C[C@@H]4CCO4)CC3)ccc2F)c(F)c1 [reference compound]" metric_name=EC50 measurement_units=nM reported=5.65
compound="O=C(O)c1ccc2nc(CN3CC=C(c4cccc(OCc5ccc(Cl)cc5F)c4)CC3)n(C[C@@H]3CCO3)c2c1 [drawing 67]" metric_name=EC50 measurement_units=nM reported=3.94
compound="O=C(O)c1ccc2nc(CN3CCC(c4cccc(OCc5ccc(Cl)cc5F)n4)CC3)n(C[C@@H]3CCO3)c2c1 [reference compound]" metric_name=EC50 measurement_units=nM reported=0.412
compound="O=C(O)c1ccc2nc(CN3CCC(c4cccc(OCc5ccc(Cl)cc5F)c4)CC3)n(C[C@@H]3CCO3)c2c1 [drawing 66, reference compound]" metric_name=EC50 measurement_units=nM reported=8.58
compound="N#Cc1ccc(COc2cncc(C3=CCN(Cc4nc5ccc(C(=O)O)cc5n4C[C@@H]4CCO4)CC3)n2)c(F)c1 [drawing 63]" metric_name=EC50 measurement_units=nM reported=9.85

# evaluate next
For the record O=C(O)c1ccc2nc(CN3CC=C(c4cncc(OCc5ccc(Cl)cc5F)n4)CC3)n(C[C@@H]3CCO3)c2c1 [drawing 61] , what value of EC50 is listed for GLP1R (Homo sapiens, UniProt P43220)? 2.94
